- measurement target: T1, extracellular domain of human KLB expressed with C-terminal HA and hexahistidine tags (human, UniProt Q86Z14 1-996)
- T1 construct: also called hKLB-HA-6His; hKLB-HA-6his
- T1 sequence: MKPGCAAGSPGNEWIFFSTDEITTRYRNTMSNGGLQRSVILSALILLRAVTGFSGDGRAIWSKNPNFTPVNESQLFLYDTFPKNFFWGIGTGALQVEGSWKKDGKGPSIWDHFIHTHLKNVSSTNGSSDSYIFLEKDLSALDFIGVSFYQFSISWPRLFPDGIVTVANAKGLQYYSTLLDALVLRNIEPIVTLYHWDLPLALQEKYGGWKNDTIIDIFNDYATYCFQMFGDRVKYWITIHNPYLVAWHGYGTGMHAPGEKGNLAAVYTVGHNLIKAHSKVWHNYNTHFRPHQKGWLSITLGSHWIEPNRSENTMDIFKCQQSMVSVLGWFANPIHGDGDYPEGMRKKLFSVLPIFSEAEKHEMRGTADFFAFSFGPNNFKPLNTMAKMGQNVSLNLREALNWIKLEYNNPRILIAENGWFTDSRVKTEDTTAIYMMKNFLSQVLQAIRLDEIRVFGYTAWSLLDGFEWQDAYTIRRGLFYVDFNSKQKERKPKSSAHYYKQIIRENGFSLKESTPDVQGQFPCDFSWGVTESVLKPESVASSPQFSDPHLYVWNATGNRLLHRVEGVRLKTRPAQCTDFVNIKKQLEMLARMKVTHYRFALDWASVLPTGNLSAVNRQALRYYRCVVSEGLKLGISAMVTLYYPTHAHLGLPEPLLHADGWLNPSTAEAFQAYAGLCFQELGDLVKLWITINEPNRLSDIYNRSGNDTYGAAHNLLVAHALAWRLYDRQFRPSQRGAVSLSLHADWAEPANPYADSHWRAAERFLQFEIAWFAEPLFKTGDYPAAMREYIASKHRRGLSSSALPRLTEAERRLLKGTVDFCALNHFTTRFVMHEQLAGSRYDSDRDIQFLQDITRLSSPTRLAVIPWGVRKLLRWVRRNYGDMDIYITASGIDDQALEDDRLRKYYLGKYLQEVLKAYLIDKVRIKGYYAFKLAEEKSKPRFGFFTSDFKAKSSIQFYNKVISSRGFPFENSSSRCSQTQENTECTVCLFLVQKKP
- protocol description: SPR, mAb captured, 25 C
observable: 20 nM hKLB-HA-6His Bind (RU)
The figure you give is taken to be in RU; do not add the unit.

Please look up its 20 nM hKLB-HA-6His Bind (RU): H2aM8098N (antibody, V domains shown, mouse IgG2 Fc (H2aM prefix)) VH: QLQLQESGPGLVKPSETLSLTCTVSGGSISSSNYYWDWIRQTPEKGLEWIGSIHYSGTSYYNPSLKSRVTISVDTSKNQFSLKLRSVTAADAAVYYCARQTSVYWYFDIWGHGTLVTVST VL: EIVLTQSPGTLSLSPGEGATLSCRASQSVRNNYLAWYQQKPGQAPRLLIYGASSRAIGIPDRFSGSGSGTDFTLTISRLEPKDFVVYYCQQYGGSLFTFGPGTKVDIK
2.7
